Below is a list of entries, each paired with its recorded IC50 value.
- study.system: human recombinant calcium ion channel Cav2.2/β3/α2δ-1 (Homo sapiens)
- Construct: expressed in transfected cells; host or cells: CHO cells (membranes)
- Sequence (P54289 25-956 limits assumed): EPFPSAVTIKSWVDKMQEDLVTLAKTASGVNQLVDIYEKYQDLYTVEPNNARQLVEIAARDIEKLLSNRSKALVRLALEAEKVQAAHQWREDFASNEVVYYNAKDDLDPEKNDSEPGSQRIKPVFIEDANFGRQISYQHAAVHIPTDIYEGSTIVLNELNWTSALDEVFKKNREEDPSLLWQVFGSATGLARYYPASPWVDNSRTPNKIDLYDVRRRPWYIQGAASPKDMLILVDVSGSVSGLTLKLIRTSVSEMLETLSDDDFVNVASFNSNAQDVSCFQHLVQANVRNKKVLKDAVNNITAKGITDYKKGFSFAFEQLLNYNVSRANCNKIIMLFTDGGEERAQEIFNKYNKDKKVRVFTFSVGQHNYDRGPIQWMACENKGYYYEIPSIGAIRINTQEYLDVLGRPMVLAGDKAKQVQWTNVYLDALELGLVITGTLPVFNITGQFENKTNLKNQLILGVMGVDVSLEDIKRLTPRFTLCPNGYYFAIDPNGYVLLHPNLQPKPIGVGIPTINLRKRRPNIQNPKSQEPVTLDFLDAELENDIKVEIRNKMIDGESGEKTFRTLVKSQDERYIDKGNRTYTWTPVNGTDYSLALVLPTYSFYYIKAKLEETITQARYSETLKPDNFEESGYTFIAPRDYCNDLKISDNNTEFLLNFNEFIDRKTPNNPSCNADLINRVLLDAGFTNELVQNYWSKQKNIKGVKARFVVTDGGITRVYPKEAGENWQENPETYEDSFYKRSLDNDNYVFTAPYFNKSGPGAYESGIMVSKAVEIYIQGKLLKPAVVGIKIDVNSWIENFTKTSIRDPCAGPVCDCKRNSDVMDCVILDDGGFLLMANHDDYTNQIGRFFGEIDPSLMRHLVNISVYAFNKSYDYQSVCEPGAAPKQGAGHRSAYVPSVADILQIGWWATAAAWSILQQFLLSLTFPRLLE
- Sequence (P54289 957-1103 partner limits assumed): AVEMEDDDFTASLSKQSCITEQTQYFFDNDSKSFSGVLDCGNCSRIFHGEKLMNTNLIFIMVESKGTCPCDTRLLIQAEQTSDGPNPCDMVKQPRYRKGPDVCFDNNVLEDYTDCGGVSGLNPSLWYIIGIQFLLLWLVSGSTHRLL
- Sequence (Q00975 whole entry partner): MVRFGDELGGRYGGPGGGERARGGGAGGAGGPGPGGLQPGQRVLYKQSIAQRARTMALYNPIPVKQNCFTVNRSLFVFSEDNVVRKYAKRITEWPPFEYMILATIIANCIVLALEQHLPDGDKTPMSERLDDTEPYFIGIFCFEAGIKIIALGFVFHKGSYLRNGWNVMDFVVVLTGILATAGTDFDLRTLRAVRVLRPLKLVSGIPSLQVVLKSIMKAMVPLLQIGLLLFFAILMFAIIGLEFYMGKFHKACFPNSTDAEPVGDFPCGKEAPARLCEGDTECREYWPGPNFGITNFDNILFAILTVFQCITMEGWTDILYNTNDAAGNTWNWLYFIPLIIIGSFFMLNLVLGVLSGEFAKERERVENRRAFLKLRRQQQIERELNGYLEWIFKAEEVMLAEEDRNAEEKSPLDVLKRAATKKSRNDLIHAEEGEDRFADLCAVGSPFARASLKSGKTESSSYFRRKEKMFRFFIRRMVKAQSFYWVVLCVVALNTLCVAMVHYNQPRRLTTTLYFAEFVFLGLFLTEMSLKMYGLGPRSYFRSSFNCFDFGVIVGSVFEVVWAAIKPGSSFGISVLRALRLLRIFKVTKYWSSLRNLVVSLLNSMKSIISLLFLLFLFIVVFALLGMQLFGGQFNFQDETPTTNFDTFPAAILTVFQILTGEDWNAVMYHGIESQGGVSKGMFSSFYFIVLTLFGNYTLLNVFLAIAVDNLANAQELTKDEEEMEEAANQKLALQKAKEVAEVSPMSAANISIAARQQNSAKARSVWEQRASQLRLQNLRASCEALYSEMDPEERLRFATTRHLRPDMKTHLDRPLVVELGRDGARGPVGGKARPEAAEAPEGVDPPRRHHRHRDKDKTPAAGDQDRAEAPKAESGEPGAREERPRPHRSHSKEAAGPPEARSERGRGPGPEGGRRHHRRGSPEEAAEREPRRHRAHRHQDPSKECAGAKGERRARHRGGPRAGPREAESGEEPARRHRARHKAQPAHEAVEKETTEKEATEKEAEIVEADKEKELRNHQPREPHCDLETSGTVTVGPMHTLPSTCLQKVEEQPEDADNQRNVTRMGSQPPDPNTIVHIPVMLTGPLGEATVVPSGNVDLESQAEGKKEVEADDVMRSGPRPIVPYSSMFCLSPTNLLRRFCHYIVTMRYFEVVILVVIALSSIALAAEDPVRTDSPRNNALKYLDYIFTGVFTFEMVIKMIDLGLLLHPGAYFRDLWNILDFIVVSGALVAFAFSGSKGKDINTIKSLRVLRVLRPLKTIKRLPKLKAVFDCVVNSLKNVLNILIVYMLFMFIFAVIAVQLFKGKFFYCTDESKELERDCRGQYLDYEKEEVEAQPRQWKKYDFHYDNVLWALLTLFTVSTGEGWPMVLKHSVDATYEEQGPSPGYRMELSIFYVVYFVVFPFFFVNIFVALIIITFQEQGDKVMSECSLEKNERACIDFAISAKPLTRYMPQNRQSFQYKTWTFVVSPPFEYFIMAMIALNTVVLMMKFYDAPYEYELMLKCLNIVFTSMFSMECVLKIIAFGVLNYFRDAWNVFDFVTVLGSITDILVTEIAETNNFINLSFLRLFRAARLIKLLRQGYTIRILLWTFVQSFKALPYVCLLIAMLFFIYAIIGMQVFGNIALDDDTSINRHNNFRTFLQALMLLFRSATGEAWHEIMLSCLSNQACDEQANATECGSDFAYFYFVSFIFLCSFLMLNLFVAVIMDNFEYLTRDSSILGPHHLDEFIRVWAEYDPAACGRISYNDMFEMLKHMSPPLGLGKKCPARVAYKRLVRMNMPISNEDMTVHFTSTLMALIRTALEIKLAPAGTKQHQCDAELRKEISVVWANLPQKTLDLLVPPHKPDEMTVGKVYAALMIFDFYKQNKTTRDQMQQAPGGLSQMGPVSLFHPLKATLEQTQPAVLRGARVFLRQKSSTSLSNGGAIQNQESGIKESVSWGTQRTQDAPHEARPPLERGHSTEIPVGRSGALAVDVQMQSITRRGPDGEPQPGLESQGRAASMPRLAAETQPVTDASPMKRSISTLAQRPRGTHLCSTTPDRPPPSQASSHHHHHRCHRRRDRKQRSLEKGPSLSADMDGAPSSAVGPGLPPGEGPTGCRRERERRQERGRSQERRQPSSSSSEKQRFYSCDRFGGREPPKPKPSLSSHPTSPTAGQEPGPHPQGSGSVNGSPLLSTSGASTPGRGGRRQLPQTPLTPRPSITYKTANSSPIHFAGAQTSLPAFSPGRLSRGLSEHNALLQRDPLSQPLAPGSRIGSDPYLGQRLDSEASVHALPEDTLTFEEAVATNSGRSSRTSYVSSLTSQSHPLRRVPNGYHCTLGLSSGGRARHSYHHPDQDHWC
- Sequence (P54284 whole entry partner): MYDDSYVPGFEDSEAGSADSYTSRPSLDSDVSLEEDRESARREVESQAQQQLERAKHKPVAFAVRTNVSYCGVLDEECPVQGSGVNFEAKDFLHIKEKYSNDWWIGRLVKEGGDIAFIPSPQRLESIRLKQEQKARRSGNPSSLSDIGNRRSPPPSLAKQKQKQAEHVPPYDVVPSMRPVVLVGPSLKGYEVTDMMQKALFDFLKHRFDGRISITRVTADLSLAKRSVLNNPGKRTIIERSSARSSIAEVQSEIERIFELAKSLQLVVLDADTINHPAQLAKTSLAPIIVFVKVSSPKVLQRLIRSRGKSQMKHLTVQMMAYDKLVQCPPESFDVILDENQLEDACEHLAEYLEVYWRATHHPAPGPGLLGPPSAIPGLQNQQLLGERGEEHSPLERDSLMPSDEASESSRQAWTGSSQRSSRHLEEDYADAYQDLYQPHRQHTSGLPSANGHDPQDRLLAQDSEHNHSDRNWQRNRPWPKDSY
- test.method.notes: In vitro binding to human recombinant calcium ion channel Cav2.2/β3/α2δ-1 ([3H]gabapentin competition)
- condition.label: inhibition of binding of 5 nM [3H]gabapentin, CHO cell membranes, 25° C., 120 min; read-out: IC50
// return numeric value only (unit: nM, not printed)

Some compounds with recorded IC50:
NCC1(CC(=O)O)CC2C3C=CC(CC3)C21 (racemic) [(±)-I-6 p-toluenesulfonate] : 300
CC1(C)C2C=CC1C1C2CC1(CN)CC(=O)O (racemic) [(±)-I-15 p-toluenesulfonate] : 580
CC1C2C=CC1C1C2CC1(CN)CC(=O)O (racemic) [(±)-I-17 p-toluenesulfonate] : 453
CC1(C)C2CC[C@@H]1[C@H]1C2CC1(CN)CC(=O)O (mixture of isomers) [(±)-I-14] : 600

Now examine the next entry.
Give human recombinant calcium ion channel Cav2.2/β3/α2δ-1 (Homo sapiens) IC50 for NCC1(CC(=O)O)CC2C3CC[C@@H](C3)[C@@H]21 (mixture of isomers) [(±)-I-3] 15.2

###

Below is a list of entries, each paired with its recorded pIC50 value.
- study.system: human recombinant calcium ion channel Cav2.2/β3/α2δ-1 (Homo sapiens)
- Construct: expressed in transfected cells; host or cells: CHO cells (membranes)
- test.method.notes: In vitro binding to human recombinant calcium ion channel Cav2.2/β3/α2δ-1 ([3H]gabapentin competition)
- condition.label: inhibition of binding of 5 nM [3H]gabapentin, CHO cell membranes, 25° C., 120 min; read-out: IC50
pIC50: −log10 of the molar value.

Some molecules with recorded pIC50:
CC1=C(C)C2(C)CC1(C)C1CC(CN)(CC(=O)O)C12 (racemic) [(±)-I-18] : < 6.14
NCC1(CC(=O)O)C[C@@H]2C1C1C=C[C@H]2C1 (mixture of isomers) [(±)-I-2] : 6.33
NCC1(CC(=O)O)CC2C3CCC(C3)C21 (racemic) [(±)-I-1] : < 6.14

Now examine the next entry.
What value of pIC50 has been recorded for this entry: NCC1(CC(=O)O)CC2C3C=CC(C3)C21 (single isomer, unassigned; (-)) [(−)-I-4 p-toluenesulfonate] < 6.61

###

- study.system: human recombinant calcium ion channel Cav2.2/β3/α2δ-1 (Homo sapiens)
- Construct: expressed in transfected cells; host or cells: CHO cells (membranes)
- test.method.notes: In vitro binding to human recombinant calcium ion channel Cav2.2/β3/α2δ-1 ([3H]gabapentin competition)
- condition.label: inhibition of binding of 5 nM [3H]gabapentin, CHO cell membranes, 25° C., 120 min; read-out: IC50
test.readout: IC50

NCC1(CC(=O)O)CC2C3C=CC(C3)C21 (racemic) [(±)-I-11 p-toluenesulfonate] : > 0.729 µM
NCC1(CC(=O)O)CC2C1C1CCC2C12CC2 (racemic) [(±)-I-10] : > 0.729 µM
Cc1ccc(S(=O)(=O)O)cc1.NCC1(CC(=O)O)CC2C3CCC(C3)C21 (single isomer, unassigned; (-)) [(−)-I-3 p-toluenesulfonate] : > 0.243 µM

What value of IC50 has been recorded for this entry: NCC1(CC(=O)O)CC2C3CCC(C3)C21 (racemic) [(±)-I-12] > 0.729 µM

Also NCC1(CC(=O)O)CC2C3CCC(CC3)C21 (racemic) [(±)-I-5] , if possible. 0.45 µM

Also CC1C2CC[C@@H]1[C@H]1C2CC1(CN)CC(=O)O (mixture of isomers) [(±)-I-16] , if possible. 0.477 µM

Also NCC1(CC(=O)O)CC2C3C[C@H]([C@H]4C[C@H]34)[C@@H]21 (mixture of isomers) [(±)-I-7] , if possible. 0.07 µM

Also CC1=C(C)C2(C)C3C(CC3(CN)CC(=O)O)C1(C)C2(C)C (racemic) [(±)-I-19] , if possible. > 0.729 µM
